Here we gather IC50 data for human HIF-PHD2 (Homo sapiens, UniProt Q9GZT9) reported by several publications.

These recorded examples may help you get a feel for the data.
O=C(O)CNC(=O)C1=C(O)c2cc(Cl)ccc2[C@@]2(CCOC2)C1=O; < 100 nM
Cn1c(=O)c(C(=O)NCC(=O)O)c(O)c2cc(C#CC3CC3)cnc21; < 50 nM
O=C(O)CNC(=O)C1=C(O)c2ccc(F)c(F)c2C2(CCOCC2)C1=O; < 100 nM
CCC1(C)C(=O)C(C(=O)NCC(=O)O)=C(O)c2ccc(Cl)cc21 (centres unmarked); 100 to 500 nM
O=C(O)c1cnn(-c2nc(O)c3c(n2)c(Cl)nn3Cc2ccc(Br)cc2)c1; 14 nM

# IC50 measured on human HIF-PHD2 (Homo sapiens, UniProt Q9GZT9) for item N#Cc1ccc(Cn2c3c(c(O)c(C(=O)NCC(=O)O)c2=O)COC3)c(F)c1 = 3 nM

Reported human HIF-PHD2 (Homo sapiens, UniProt Q9GZT9) IC50 for item Cc1nn(Cc2ccc(C(F)(F)F)cc2)c2c(O)nc(-n3cc(C(=O)O)cn3)nc12 was 37 nM

// returns IC50 for O=C(O)CNC(=O)c1c(O)c2ccc(-c3cc(F)c(F)c(F)c3)cc2oc1=O with human HIF-PHD2 (Homo sapiens, UniProt Q9GZT9); value = 150 nM
